ASSAY_TARGET: Fuc(a1-2)Gal(b1-3)GlcNAc(b1-3)Gal(b1-4)Glc
METHOD_DESCRIPTION: glycan array binding signal (z-score within array); higher = stronger binding
CONDITION_CONTEXT: glycan notation: IUPAC condensed, linker removed
This is one part of a sample in which the strongest signals are shown more often than they occur.
Tag: t if measured glycan array binding signal (z-score) is not below -0.1, f if it is.

Illustrative cases are given below, each with its answer.
Langerin K313I (Homo sapiens), Q9UJ71 (protein) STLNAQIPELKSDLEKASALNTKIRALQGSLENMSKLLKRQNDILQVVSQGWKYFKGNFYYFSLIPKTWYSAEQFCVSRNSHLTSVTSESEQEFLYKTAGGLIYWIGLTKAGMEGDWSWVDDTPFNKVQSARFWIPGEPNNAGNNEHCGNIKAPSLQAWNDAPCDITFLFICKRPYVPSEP = f
DCL-1 (Homo sapiens), Q8IX05 (protein) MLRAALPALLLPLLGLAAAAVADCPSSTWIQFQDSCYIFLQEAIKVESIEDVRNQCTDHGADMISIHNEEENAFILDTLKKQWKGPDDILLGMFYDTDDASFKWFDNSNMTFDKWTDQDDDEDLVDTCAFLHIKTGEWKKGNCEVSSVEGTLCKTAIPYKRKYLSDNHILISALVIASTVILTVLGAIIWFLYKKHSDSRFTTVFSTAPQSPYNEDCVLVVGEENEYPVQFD = f
AMA (Arum maculatun) (protein) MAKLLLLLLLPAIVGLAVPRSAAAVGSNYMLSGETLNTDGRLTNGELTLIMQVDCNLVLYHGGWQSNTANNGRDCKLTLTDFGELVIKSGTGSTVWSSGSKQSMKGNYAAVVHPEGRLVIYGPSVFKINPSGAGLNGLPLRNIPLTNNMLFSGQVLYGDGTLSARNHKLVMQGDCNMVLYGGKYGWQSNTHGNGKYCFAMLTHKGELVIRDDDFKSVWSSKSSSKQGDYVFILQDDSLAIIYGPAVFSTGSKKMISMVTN = f
SSL (Salmo salar) (protein) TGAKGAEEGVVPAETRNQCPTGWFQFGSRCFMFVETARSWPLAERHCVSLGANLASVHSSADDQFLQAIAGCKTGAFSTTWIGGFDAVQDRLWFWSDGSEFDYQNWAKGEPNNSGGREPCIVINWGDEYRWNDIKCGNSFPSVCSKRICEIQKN = t
Clec12b (Mus musculus), Q149M0 (protein) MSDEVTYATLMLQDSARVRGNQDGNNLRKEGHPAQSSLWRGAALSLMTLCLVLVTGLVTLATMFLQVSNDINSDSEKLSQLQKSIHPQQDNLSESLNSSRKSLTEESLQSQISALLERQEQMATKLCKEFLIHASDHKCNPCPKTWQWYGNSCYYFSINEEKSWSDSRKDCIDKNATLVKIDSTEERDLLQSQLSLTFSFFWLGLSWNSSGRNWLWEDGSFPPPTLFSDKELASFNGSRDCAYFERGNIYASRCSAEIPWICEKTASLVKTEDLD = t

Please find the next binder below.
Does the binder NcCVNHO (Neurospora crassa), Q7S6U4 (protein) MSFHVTAEDARIEVRDNRTILFARLRREDGEWNDASYELDQIIGNNDGHFQWGGQNFTETAEDIRFHPKEGAAEQPILRARLRDCNGEFHDRDVNLTEIVENVNGEFQAKF have recorded glycan array binding signal (z-score) that is -0.1 or more?
t
